assay comment: Aqueous solubility of the drug
measurement parameters: aqueous, pH 7, aqueous buffer
Structures can show the parent of a compound that is named as a salt.
test readout: solubility (µg/mL)
Please respond with the number in µg/mL and leave the unit unwritten.

If you can, please state the reported solubility value of CN[C@H]1CC[C@@H](c2ccc(Cl)c(Cl)c2)c2ccccc21 [Drug 2, sertraline HCl] .
200
